- SYSTEM_NAME: ROCK2 protein (Homo sapiens)
- Sequence (O75116 whole entry): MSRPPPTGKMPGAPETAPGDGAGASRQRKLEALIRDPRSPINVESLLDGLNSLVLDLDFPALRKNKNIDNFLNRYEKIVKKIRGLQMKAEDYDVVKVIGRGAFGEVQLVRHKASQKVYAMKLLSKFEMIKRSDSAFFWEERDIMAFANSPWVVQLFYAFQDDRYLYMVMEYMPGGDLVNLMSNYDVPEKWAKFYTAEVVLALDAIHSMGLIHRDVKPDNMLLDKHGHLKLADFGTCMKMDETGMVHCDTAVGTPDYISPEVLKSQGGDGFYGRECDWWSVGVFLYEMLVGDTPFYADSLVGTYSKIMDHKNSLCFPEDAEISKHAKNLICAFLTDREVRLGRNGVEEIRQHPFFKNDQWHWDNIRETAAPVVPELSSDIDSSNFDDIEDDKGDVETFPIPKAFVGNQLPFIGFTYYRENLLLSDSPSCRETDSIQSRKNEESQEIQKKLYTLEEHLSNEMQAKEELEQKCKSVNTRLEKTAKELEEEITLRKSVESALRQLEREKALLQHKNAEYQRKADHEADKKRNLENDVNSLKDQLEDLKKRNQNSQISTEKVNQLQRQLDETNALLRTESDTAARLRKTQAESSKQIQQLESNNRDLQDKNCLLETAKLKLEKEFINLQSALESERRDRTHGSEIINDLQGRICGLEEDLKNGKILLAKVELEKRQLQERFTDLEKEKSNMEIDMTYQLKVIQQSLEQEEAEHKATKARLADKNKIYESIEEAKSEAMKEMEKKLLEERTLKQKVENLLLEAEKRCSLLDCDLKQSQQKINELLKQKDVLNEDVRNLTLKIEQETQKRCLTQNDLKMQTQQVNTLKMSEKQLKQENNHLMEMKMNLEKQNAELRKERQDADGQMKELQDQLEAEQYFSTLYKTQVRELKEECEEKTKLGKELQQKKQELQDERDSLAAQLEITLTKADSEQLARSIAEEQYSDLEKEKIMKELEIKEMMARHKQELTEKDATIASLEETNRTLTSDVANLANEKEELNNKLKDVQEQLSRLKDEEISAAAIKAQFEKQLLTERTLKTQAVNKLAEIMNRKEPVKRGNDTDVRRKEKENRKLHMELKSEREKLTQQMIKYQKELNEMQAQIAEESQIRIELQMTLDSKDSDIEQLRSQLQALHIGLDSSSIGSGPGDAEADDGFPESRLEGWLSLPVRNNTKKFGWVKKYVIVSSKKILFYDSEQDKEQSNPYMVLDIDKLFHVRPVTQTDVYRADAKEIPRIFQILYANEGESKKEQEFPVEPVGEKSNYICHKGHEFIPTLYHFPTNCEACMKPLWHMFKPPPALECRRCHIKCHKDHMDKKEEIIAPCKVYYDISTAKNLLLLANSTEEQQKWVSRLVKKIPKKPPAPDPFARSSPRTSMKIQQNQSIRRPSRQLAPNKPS
- ASSAY_NAME: Degradation inducing activity of ROCK2 protein in HUVEC cells, Western blotting (Simple Western JESS)
- Assay type: cell-based
- Design: endogenous in cells; host or cells: HUVEC (ATCC CRL-1730)
- TEST_CONDITIONS: HUVEC, 24 h, degradation rate at 10 µM
- Protocol: In vitro degradation inducing activity of ROCK2 protein of compounds of Examples was evaluated by Western Blotting (WB). By a test compound, 10 mM DMSO solution was prepared, which was used as a 10 µM test compound solution. […] The western blotting was performed using Simple Western JESS (protein simple). […] The standardized expression level data of the control (DMSO) was taken as 100%, and the degradation rate (%) was calculated from the average standardized expression level data of the test compound. […]
OBSERVATION_TYPE: inhibition at 10 µM

Here is how some compounds turned out for inhibition at 10 µM.
Input line: Please provide the recorded inhibition at 10 µM for COC[C@H]1CN[C@H](C)CN1CC(=O)N1CC(C)(C)c2ncc(Cc3ccccc3OCCOCCOCCOCCOCCOCCOCCNC[C@@H](C(=O)Nc3ccc4cnccc4c3)c3ccccc3)cc21 , tested on ROCK2 protein (Homo sapiens).
Output line: ≥ 75%

Input line: Please provide the recorded inhibition at 10 µM for COC[C@H]1CN[C@H](C)CN1CC(=O)N1CC(C)(C)c2nc(CN(C)CCOCCOCCN[C@H](C)c3ccc(C(=O)Nc4ccncc4)cc3)c(Cc3ccc(F)cc3)cc21 , tested on ROCK2 protein (Homo sapiens).
Output line: ≥ 75%

Let us move to another entry and its inhibition at 10 µM.
Input line: Please provide the recorded inhibition at 10 µM for COC[C@H]1CN[C@H](C)CN1CC(=O)N1CC(C)(C)c2ncc(Cc3ccccc3OCCOCCOCCOCCOCCOCCOCCOCCNC[C@@H](C(=O)Nc3ccc4cnccc4c3)c3ccccc3)cc21 , tested on ROCK2 protein (Homo sapiens).
Output line: 25 to 50%

---

- SYSTEM_NAME: ROCK2 protein (Homo sapiens)
- ASSAY_NAME: Degradation inducing activity of ROCK2 protein in HUVEC cells, Western blotting (Simple Western JESS)
- Format: cell-based
- Parameters: endogenous in cells; host or cells: HUVEC (ATCC CRL-1730)
- TEST_CONDITIONS: HUVEC, 24 h, degradation rate at 10 µM
The entries below are paired with their reported inhibition at 10 µM.

Here is how some compounds turned out for inhibition at 10 µM.
Input line: Which inhibition at 10 µM value belongs to COC[C@H]1CN[C@H](C)CN1CC(=O)N1CC(C)(C)c2ncc(Cc3ccccc3OCCOCCOCCOCCOCCN[C@H](C)c3ccc(C(=O)Nc4ccncc4)cc3)cc21 ?
Output line: 50 to 75%

Input line: Which inhibition at 10 µM value belongs to C[C@@H]1CN(CC(=O)N2CC(C)(C)c3ncc(Cc4ccc(F)cc4)cc32)[C@@H](CN(C)CCOCCOCCOCCOCCOCCOCCOCCN[C@H](C)c2ccc(C(=O)Nc3ccncc3)cc2)CN1 ?
Output line: 50 to 75%

Input line: Which inhibition at 10 µM value belongs to COC[C@H]1CN[C@H](C)CN1CC(=O)N1CC(C)(C)c2nc(CN(C)CCOCCOCCOCCOCCOCCOCCOCCN[C@H](Cc3cccc(F)c3)C(=O)Nc3ccc(-c4ccncc4)cc3)c(Cc3ccc(F)cc3)cc21 ?
Output line: ≥ 75%

---
Input line: Which inhibition at 10 µM value belongs to COC[C@H]1CN[C@H](C)CN1CC(=O)N1CC(C)(C)c2nc(CN(C)CCOCCOCCOCCOCCOCCN[C@H](Cc3cccc(F)c3)C(=O)Nc3ccc(-c4ccncc4)cc3)c(Cc3ccc(F)cc3)cc21 ?
Output line: ≥ 75%
